Catalogue of binders with associated JHH-7 Internalization (MFI)
target: human glypican-3 (GPC3) (human, UniProt P51654 25-554); experiment: cell-based or functional assay; note: test concentration or dose not given here
Numbers only here, please. The scale is MFI.

Binder	JHH-7 Internalization (MFI)
H18L6_LC_G34E mAb, v40204 (antibody, human IgG1, kappa, V domains shown, M3-H18L6 chains with the stated light chain point mutation, IgG1/kappa) VH: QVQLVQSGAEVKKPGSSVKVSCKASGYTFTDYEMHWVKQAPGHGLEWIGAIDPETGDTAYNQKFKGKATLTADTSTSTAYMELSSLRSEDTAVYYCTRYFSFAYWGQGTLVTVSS VL: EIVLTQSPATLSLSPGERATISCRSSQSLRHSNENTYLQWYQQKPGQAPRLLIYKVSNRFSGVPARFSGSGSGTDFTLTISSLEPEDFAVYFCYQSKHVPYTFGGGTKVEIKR	4410
H18L6_LC_G34K mAb, v40207 (antibody, human IgG1, kappa, V domains shown, Full-size IgG1/kappa) VH: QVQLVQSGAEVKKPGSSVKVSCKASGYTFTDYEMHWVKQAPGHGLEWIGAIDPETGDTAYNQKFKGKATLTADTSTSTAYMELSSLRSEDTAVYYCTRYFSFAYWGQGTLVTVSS VL: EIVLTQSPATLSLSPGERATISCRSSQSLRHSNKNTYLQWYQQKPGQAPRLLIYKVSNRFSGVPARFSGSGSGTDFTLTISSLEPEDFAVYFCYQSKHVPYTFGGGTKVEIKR	8760
H18L6_LC_G34H mAb, v40205 (antibody, human IgG1, kappa, V domains shown, M3-H18L6 chains with the stated light chain point mutation, IgG1/kappa) VH: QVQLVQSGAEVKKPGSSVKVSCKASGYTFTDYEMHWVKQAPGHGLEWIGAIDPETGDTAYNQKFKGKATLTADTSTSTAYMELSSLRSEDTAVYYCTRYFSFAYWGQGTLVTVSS VL: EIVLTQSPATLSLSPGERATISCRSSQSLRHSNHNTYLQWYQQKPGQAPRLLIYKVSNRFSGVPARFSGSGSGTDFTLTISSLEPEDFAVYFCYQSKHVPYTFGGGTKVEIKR	7320
H18L6_LC_G34V mAb, v40211 (antibody, human IgG1, kappa, V domains shown, M3-H18L6 chains with the stated light chain point mutation, IgG1/kappa) VH: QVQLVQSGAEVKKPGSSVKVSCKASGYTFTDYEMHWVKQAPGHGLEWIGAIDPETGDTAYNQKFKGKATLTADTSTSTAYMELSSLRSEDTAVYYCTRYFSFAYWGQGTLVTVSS VL: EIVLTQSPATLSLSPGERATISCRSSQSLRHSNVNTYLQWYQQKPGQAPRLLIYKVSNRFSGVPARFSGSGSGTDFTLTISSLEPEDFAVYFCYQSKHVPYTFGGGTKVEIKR	3330
H18L6_LC_G34D mAb, v40203 (antibody, human IgG1, kappa, V domains shown) VH: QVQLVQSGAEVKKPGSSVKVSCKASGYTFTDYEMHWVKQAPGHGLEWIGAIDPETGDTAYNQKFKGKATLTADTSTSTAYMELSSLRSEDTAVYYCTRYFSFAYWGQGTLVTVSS VL: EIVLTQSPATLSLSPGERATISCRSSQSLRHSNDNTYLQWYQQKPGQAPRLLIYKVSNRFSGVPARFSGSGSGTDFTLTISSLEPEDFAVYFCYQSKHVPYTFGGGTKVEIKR	5010

response.value for H18L6_LC_G34A mAb, v40212 (antibody, human IgG1, kappa, V domains shown, M3-H18L6 chains with the stated light chain point mutation, IgG1/kappa) VH: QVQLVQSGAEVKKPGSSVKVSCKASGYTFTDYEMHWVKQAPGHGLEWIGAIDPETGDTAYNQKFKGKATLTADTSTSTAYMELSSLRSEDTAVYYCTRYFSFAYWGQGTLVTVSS VL: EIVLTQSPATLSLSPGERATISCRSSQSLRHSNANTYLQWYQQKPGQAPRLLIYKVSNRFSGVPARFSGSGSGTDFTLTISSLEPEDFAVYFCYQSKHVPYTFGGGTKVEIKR (field: JHH-7 Internalization (MFI)) = 8070

response.value for H18L6_LC_G34S mAb, v40210 (antibody, human IgG1, kappa, V domains shown, M3-H18L6 chains with the stated light chain point mutation, IgG1/kappa) VH: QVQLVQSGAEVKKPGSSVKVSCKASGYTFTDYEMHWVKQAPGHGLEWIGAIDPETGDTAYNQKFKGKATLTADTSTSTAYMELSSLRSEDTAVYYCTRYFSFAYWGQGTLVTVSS VL: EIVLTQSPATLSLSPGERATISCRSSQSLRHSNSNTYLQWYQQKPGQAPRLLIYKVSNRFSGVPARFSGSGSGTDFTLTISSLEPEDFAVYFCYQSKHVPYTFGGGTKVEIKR (field: JHH-7 Internalization (MFI)) = 8900

Cited source for all entries: patent US20250295799A1
